Measured values drawn from PubChem BioAssay AID1347075 for this set.

- method_summary: qHTS assay for MDR1-selective chemotherapeutics: Primary screen using the parental adenocarcinoma cell KB-3-1; note: nearly all actives have a fitted effect of over 60% in size
- condition_context: KB-3-1 viability, CellTiter-Glo ATP luminescence, 72 h; series mostly up to 46.1 µM
About 5,500 (1.4%) of roughly 400,000 compounds were called active. Inconclusive results (about 9%) are left out. Calls come from the whole dose curve; as a rule, active = well fitted cell-killing curve with a large enough effect; inconclusive = small, poorly fitted or top-dose-only effect, or effect the other way; inactive = flat fitted curve, though single readings scatter. Many of the other results were omitted from the sample, so actives are more common in it than they were.
Outcome codes: active, inactive

[[record]]
molecule = "CCOCCCNC(=O)c1c(NC(=O)Cc2coc3c(C)c(C)ccc23)sc2c1CCC2"
class_label = "inactive"

[[record]]
molecule = "Cn1c(NCc2cccnc2)nc2cc(-c3ccc(F)cc3)sc2c1=O"
class_label = "inactive"

[[record]]
molecule = "O=C(CCl)Nc1cccc(CP(=O)(c2ccccc2)c2ccccc2)c1"
class_label = "active"

[[record]]
molecule = "CNC(=O)c1ccc(-c2nc(CN3CCc4ccccc43)c(C)o2)cc1"
class_label = "inactive"

[[record]]
molecule = "COc1cccc(-c2cc3nc(NCCOc4ccccc4Cl)n(C)c(=O)c3s2)c1"
class_label = "inactive"

[[record]]
molecule = "Cc1cccc(N(C)C(=O)c2cc3c(=O)[nH]c4ccc(C)cc4c3s2)c1"
class_label = "active"

[[record]]
molecule = "CC(=O)c1c(C)oc2ccc(NS(=O)(=O)c3ccc(C(=O)O)cc3)cc12"
class_label = "inactive"

[[record]]
molecule = "CSc1cccc(NC(=O)CSc2ccccc2)c1"
class_label = "inactive"

[[record]]
molecule = "CCCCn1c(CNC(=O)C23CC4CC(CC(C4)C2)C3)nnc1SCC(=O)Nc1ccc(C)cc1"
class_label = "inactive"

[[record]]
molecule = "COc1ccc(NS(=O)(=O)c2ccc(NC(C)=O)cc2)cc1OC"
class_label = "active"

[[record]]
molecule = "CCc1nc2onc(C)c2c(=O)n1CC(=O)O"
class_label = "inactive"

[[record]]
molecule = "CCn1c(C(O)c2cc(OC)ccc2OC)nc2ccccc21 (centres undefined)"
class_label = "inactive"

[[record]]
molecule = "O=C(CO/N=C/c1ccccc1O)NNC(=O)c1ccccc1Cl"
class_label = "inactive"

[[record]]
molecule = "O=C(CCn1c(=O)c2ccccc2n(Cc2ccc(Cl)cc2)c1=O)NCc1ccc2c(c1)OCO2"
class_label = "inactive"

[[record]]
molecule = "COc1cccc(CNC(=O)C2CCN(S(=O)(=O)c3ccc4c(ccn4C)c3)CC2)c1"
class_label = "inactive"

[[record]]
molecule = "CC(=O)N1CCc2cc(S(=O)(=O)NC(Cc3ccccc3)C(=O)NCc3ccc(C)cc3)ccc21 (centres undefined)"
class_label = "inactive"

[[record]]
molecule = "O=C(Cc1ccccc1)N/N=C/c1ccc(Cl)cc1Cl"
class_label = "inactive"

[[record]]
molecule = "COc1ccc(NC(=S)SC)cc1OC"
class_label = "inactive"

[[record]]
molecule = "CCCc1nc2sc3c(c2c(=O)n1NC(=O)CCCl)CCCC3"
class_label = "active"

[[record]]
molecule = "CCN(CC)c1ccc(/C=N/NC(=O)c2cnccn2)c(O)c1"
class_label = "active"

[[record]]
molecule = "Cc1noc(C)c1S(=O)(=O)N(CC(=O)Nc1ccc2c(c1)OCCO2)c1ccc(C(C)C)cc1"
class_label = "inactive"

[[record]]
molecule = "CC(C)Cn1c(C2CC(=O)N(c3ccccc3Cl)C2)nc2ccccc21 (centres undefined)"
class_label = "inactive"

[[record]]
molecule = "CCN(Cc1ccccc1)Cc1c(O)ccc2c(=O)c(-c3ccc(Cl)cc3Cl)coc12"
class_label = "inactive"

[[record]]
molecule = "COc1cccc(OCC(=O)NNC(=O)c2cnccn2)c1"
class_label = "inactive"

[[record]]
molecule = "N#CC1=C(N)Oc2cc(O)ccc2C1C1CCCCC1 (centres undefined)"
class_label = "inactive"

[[record]]
molecule = "COc1ccc(N(CC(=O)Nc2cc(OC)ccc2OC)S(=O)(=O)c2c(C)noc2C)cc1"
class_label = "active"

[[record]]
molecule = "COc1ccc(CN2CCc3nc(Nc4ccccc4)ncc3C2)c(OC)c1OC"
class_label = "inactive"

[[record]]
molecule = "CC(=O)c1c(C)oc2ccc(NS(=O)(=O)c3ccccc3)cc12"
class_label = "inactive"

[[record]]
molecule = "Oc1ccc(Br)cc1C1C=C(c2ccc3c(c2)OCO3)NC(c2ccc(Cl)cc2)N1 (centres undefined)"
class_label = "inactive"

[[record]]
molecule = "O=C(CSc1ccccc1)Nc1ccc(C(=O)Nc2cccc(O)c2)cc1"
class_label = "inactive"

[[record]]
molecule = "CCOc1ccc(N(CC(=O)OC)S(=O)(=O)c2c(C)noc2C)cc1"
class_label = "inactive"

[[record]]
molecule = "CCN(CC)CCCNC(=O)c1cc2c(=O)[nH]c3ccc(C)cc3c2s1"
class_label = "inactive"

[[record]]
molecule = "O=C(c1ccc(Cl)cc1)n1nc(-c2cccnc2)nc1NCc1ccc(F)cc1"
class_label = "inactive"

[[record]]
molecule = "COc1ccc(-c2nn3c(=O)cc(CN4CCN(C(=O)c5ccc(OC)c(OC)c5)CC4)nc3s2)cc1"
class_label = "inactive"

[[record]]
molecule = "Nc1ncnc2nnsc12"
class_label = "inactive"

[[record]]
molecule = "COc1cc(C=C(OC(C)=O)c2ccc3c(c2)OCO3)cc(OC)c1OC"
class_label = "inactive"

[[record]]
molecule = "Cc1ccc(OCCSc2nc(-c3cccs3)nc3cc(=O)[nH]n23)cc1Cl"
class_label = "inactive"

[[record]]
molecule = "NS(=O)(=O)c1ccc(CNC(=O)c2cnccn2)cc1"
class_label = "inactive"

[[record]]
molecule = "Cn1cc(S(=O)(=O)N2CCCCCC2)cc1C(=O)N1CCN(c2ccc(F)cc2)CC1"
class_label = "inactive"

[[record]]
molecule = "COc1cc(C(=O)N(Cc2ccc(C(C)C)cc2)C2CCS(=O)(=O)C2)cc(OC)c1OC (centres undefined)"
class_label = "inactive"

[[record]]
molecule = "COc1cc(C2CC(=O)Oc3cc(OC)c(OC)c(OC)c32)cc(OC)c1OC (centres undefined)"
class_label = "inactive"

[[record]]
molecule = "COc1ccc(C2C(C#N)=C(/N=C/N3CCOCC3)OC3=C2C(=O)CC(C)(C)C3)cc1OC (centres undefined)"
class_label = "inactive"

[[record]]
molecule = "O=C(NN=Cc1ccccc1O)NN=Cc1ccccc1O"
class_label = "active"

[[record]]
molecule = "COc1ccc(C2C(C#N)=C(N)Oc3cc(N)ccc32)cc1OC (centres undefined)"
class_label = "active"


----------
- method_summary: qHTS assay for MDR1-selective chemotherapeutics: Primary screen using the parental adenocarcinoma cell KB-3-1; note: nearly all actives have a fitted effect of over 60% in size
- condition_context: KB-3-1 viability, CellTiter-Glo ATP luminescence, 72 h; series mostly up to 46.1 µM
About 5,500 (1.4%) of roughly 400,000 compounds were called active. Roughly 9% stayed inconclusive and do not appear here. Calls follow the shape of the dose curve; as a rule, active = well fitted cell-killing curve with a large enough effect; inconclusive = small, poorly fitted or top-dose-only effect, or effect the other way; inactive = flat fitted curve, though single readings scatter. Only a selection was taken, and actives are over-represented in it overall.
Labels: Y (active), N (inactive)

[[record]]
compound = "CCOC(=O)C(=Cc1ccccc1)C(=O)c1ccccc1"
class_label = "Y"

[[record]]
compound = "CCOC(=O)c1c(C)[nH]c(C(=O)COc2ccc3c(c2)OCO3)c1C"
class_label = "N"

[[record]]
compound = "O=C(Nc1cccc(Cl)c1)c1csnn1"
class_label = "N"

[[record]]
compound = "CCN(C(=O)CSc1nnc(C)n2c1cc1occc12)c1ccccc1"
class_label = "N"

[[record]]
compound = "COc1ccc2c(c1)c(N1CCCC1=O)c(C(=O)Nc1ccc(OC)c(Cl)c1)n2C"
class_label = "N"

[[record]]
compound = "CCOc1ccc(Br)cc1CSC(=N)N"
class_label = "Y"

[[record]]
compound = "CCOC(=O)N1CCN(C(=O)COCc2cc(-c3ccc4c(c3)OCO4)on2)CC1"
class_label = "N"

[[record]]
compound = "O=S(=O)(NCC(c1ccccc1)N1CCc2ccccc21)c1ccccc1 (stereo not drawn)"
class_label = "N"

[[record]]
compound = "COc1cc2nc(SCc3ccc(F)cc3)n3nc(CCn4c(C)nc5ccccc54)nc3c2cc1OC"
class_label = "N"

[[record]]
compound = "Cc1c(Cl)cccc1-c1ccc(CNCCCSc2nnnn2C)o1"
class_label = "N"

[[record]]
compound = "CCOC(=O)CCP(=O)(O)C(O)(c1ccccc1)c1ccccc1"
class_label = "N"

[[record]]
compound = "Cc1ccc(C(=O)Nc2ccc3[nH]c(=O)c(=O)[nH]c3c2)cc1"
class_label = "N"

[[record]]
compound = "Cc1ccc(C2CCN(C(=S)Nc3cccc(Cl)c3)C2)cc1 (stereo not drawn)"
class_label = "N"

[[record]]
compound = "COc1cc(OC)c(C2C=C(C(=O)O)Nc3ncnn32)cc1OC (stereo not drawn)"
class_label = "N"

[[record]]
compound = "CCC1CCCCN1S(=O)(=O)c1ccc(NC(=O)c2cc(=O)c3ccccc3o2)cc1 (stereo not drawn)"
class_label = "N"

[[record]]
compound = "CC(C)(C)NCc1cc(Br)ccc1OC1CCCC1"
class_label = "N"

[[record]]
compound = "CC1=Nc2cc(C(=O)N3CCC(C)CC3)ccc2Sc2ccc(Cl)cc21"
class_label = "N"

[[record]]
compound = "Cc1ccc(CN2CCCn3nc(C(=O)NCc4ccccc4Cl)cc3C2=O)cc1"
class_label = "N"

[[record]]
compound = "NC(=O)Nc1ccc(/C=C/c2ccnc3ccccc23)cc1"
class_label = "N"

[[record]]
compound = "CCOc1ccc(Br)cc1S(=O)(=O)N1CCC(C(=O)O)CC1"
class_label = "N"

[[record]]
compound = "COCCNC(=O)c1ccc2c(c1)N=C(C)c1cc(C)ccc1S2"
class_label = "Y"

[[record]]
compound = "Cc1ccc(S(=O)(=O)c2nc(-c3cccs3)oc2N2CCCCC2)cc1"
class_label = "N"

[[record]]
compound = "Cc1nn(C(C)C(=O)NCCc2ccccc2)c(=O)c2c1sc1ccccc12 (stereo not drawn)"
class_label = "N"

